Recorded recombinant UMI read abundance (log10) for the following sequences
assay_explanation: recombinant UMI read abundance after kanamycin selection (control-corrected) (log10(CPM+1)); higher = more efficient recombination; extreme values may be limits of the assay; sequences stand for … in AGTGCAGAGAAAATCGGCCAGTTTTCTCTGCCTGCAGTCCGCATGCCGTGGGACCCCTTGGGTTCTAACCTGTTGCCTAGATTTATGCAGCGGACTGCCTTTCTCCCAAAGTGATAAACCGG…AGGTTGGTTTCACT; site = the 11-nt donor
experimental_readout: recombinant UMI read abundance (log10)

{"sequence_input": "TACACTTCATGGACCGGTTTTCCCGGTAATCCGTATTTGGC (site TACACTTCTGC)", "reported_measurement": 0}
{"sequence_input": "GTTAGAGCATGGACCGGTTTTCCCGGTAATCCGTATTTGGC (site GTTAGATCTGC)", "reported_measurement": 1.51}
{"sequence_input": "CGCCGTGCATGGACCGGTTTTCCCGGTAATCCGTATTTGCT (site CGCCGTCCTAG)", "reported_measurement": 0.00563}
{"sequence_input": "CCTTCTTCATGGACCGGTTTTCCCGGTAATCCGTATTTGTC (site CCTTCTTCTGA)", "reported_measurement": 0}
{"sequence_input": "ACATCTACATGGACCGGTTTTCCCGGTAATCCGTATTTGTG (site ACATCTACTCA)", "reported_measurement": 0.552}

----------
assay_explanation: recombinant barcode read abundance after kanamycin selection (control-corrected) (log10(CPM+1)); higher = more efficient recombination; sequences stand for … in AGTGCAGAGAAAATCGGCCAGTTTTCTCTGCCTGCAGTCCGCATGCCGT…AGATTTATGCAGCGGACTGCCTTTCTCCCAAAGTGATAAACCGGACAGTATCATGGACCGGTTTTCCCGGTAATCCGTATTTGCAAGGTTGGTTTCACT; site = the 11-nt target
experimental_readout: recombinant barcode read abundance (log10)

{"sequence_input": "GTAAGAACTTGGGTTCTAACCTGTTGCAG (site GTAAGAACTCT)", "reported_measurement": 1.78}
{"sequence_input": "AGTTAACCTTGGGTTCTAACCTGTTGCGG (site ACTTGACCTCC)", "reported_measurement": 0.0373}
{"sequence_input": "TTGGCCACTTGGGTTCTAACCTGTTGCCT (site TTGGACACTAG)", "reported_measurement": 0.0972}
{"sequence_input": "CAACCGGCTTGGGTTCTAACCTGTTGCCT (site CAACCGACTAG)", "reported_measurement": 0.0354}
{"sequence_input": "CTTAGGACTTGGGTTCTAACCTGTTGCCT (site CTTAGGACTCG)", "reported_measurement": 0.0406}
{"sequence_input": "TCCCAGTCTTGGGTTCTAACCTGTTGCAT (site TCCCAGTCTAG)", "reported_measurement": 0.242}
{"sequence_input": "ACCGAGTCTTGGGTTCTAACCTGTTGCCT (site ATCGAGTCTAG)", "reported_measurement": 0.387}
{"sequence_input": "CATATGACTTGGGTTCTAACCTGTTGCCT (site TCAGGAGCTTA)", "reported_measurement": 0.126}
{"sequence_input": "CTCTCGTCTTGGGTTCTAACCTGTTGCTT (site CTCTCGTCTAA)", "reported_measurement": 0.2}
{"sequence_input": "AGGACTTCTTGGGTTCTAACCTGTTGCCT (site AGGATTACTAG)", "reported_measurement": 0.704}
{"sequence_input": "TTAGGGGCTTGGGTTCTAACCTGTTGCCT (site TTAGGGCCTAG)", "reported_measurement": 0.08}
{"sequence_input": "CCACTGTCTTGGGTTCTAACCTGTTGCCT (site CCACTGTCTAG)", "reported_measurement": 0.632}
{"sequence_input": "ATGCCCTCTTGGGTTCTAACCTGTTGCCT (site ATGGCCTCTAG)", "reported_measurement": 0.0962}
{"sequence_input": "GACTTACCTTGGGTTCTAACCTGTTGCCT (site GACGTACCTAG)", "reported_measurement": 0.111}
{"sequence_input": "CCGTCTACTTGGGTTCTAACCTGTTGCTG (site CCGTCTACTGA)", "reported_measurement": 0.0602}
{"sequence_input": "CATAGATCTTGGGTTCTAACCTGTTGCTT (site CACAGATCTAA)", "reported_measurement": 0.385}
{"sequence_input": "ACCCAACCTTGGGTTCTAACCTGTTGCCT (site ACCCAAGCTAG)", "reported_measurement": 0.104}
{"sequence_input": "TCCCAGTCTTGGGTTCTAACCTGTTGCCT (site TCCCAGTCTAC)", "reported_measurement": 0.889}
{"sequence_input": "CGAGCAGCTTGGGTTCTAACCTGTTGCCT (site CGTGCAGCTAG)", "reported_measurement": 0.0197}
{"sequence_input": "GTACGTCCTTGGGTTCTAACCTGTTGCGT (site GTACGTCCTAG)", "reported_measurement": 0.0549}
{"sequence_input": "GTGAACTCTTGGGTTCTAACCTGTTGCCT (site GTAAACTCTAG)", "reported_measurement": 1.56}
{"sequence_input": "CAGAGCACTTGGGTTCTAACCTGTTGCCT (site TAGAGCACTAG)", "reported_measurement": 0.138}
{"sequence_input": "AGGATACCTTGGGTTCTAACCTGTTGCCT (site AGGATAACTAG)", "reported_measurement": 0.219}
{"sequence_input": "GATGGGCCTTGGGTTCTAACCTGTTGCGT (site GCTGGGCCTTC)", "reported_measurement": 0.246}
{"sequence_input": "TAGTGTCCTTGGGTTCTAACCTGTTGCCA (site TGGTGTGCTTG)", "reported_measurement": 0.142}
{"sequence_input": "TAGAAGCCTTGGGTTCTAACCTGTTGCTA (site TAGAAGGCTTA)", "reported_measurement": 0.21}
{"sequence_input": "CTCGGATCTTGGGTTCTAACCTGTTGCTA (site CTCGGATCTGA)", "reported_measurement": 0.0177}
{"sequence_input": "TCTAAACCTTGGGTTCTAACCTGTTGCAT (site TCTAACCCTAT)", "reported_measurement": 0.142}
{"sequence_input": "TGGTCTACTTGGGTTCTAACCTGTTGCTT (site TGCTCTACTAA)", "reported_measurement": 0.0743}
{"sequence_input": "ACGCACTCTTGGGTTCTAACCTGTTGCCT (site ACGCACTCTAG)", "reported_measurement": 0.131}
{"sequence_input": "CGTAATGCTTGGGTTCTAACCTGTTGCCT (site CGTAATGCTAG)", "reported_measurement": 0.0999}
{"sequence_input": "ATGGGCCCTTGGGTTCTAACCTGTTGCTA (site ATGGGCCCTAA)", "reported_measurement": 0.362}
{"sequence_input": "TAGAGGACTTGGGTTCTAACCTGTTGCAG (site TACAGGACTCT)", "reported_measurement": 0.0593}
{"sequence_input": "TTCCAAACTTGGGTTCTAACCTGTTGCGG (site TTCCACACTCC)", "reported_measurement": 0.193}
{"sequence_input": "GATACGTCTTGGGTTCTAACCTGTTGCCT (site GATACGTCTAG)", "reported_measurement": 0.623}
{"sequence_input": "AACTTCTCTTGGGTTCTAACCTGTTGCCT (site AACTTCTCTAG)", "reported_measurement": 0.917}
{"sequence_input": "CCAAGGACTTGGGTTCTAACCTGTTGCCT (site CCACGGACTAG)", "reported_measurement": 0.0394}
{"sequence_input": "CGGGCAGCTTGGGTTCTAACCTGTTGCCT (site CGGGCAGCTAG)", "reported_measurement": 0.0664}
{"sequence_input": "ACCAATACTTGGGTTCTAACCTGTTGCCT (site ACCAATACTAG)", "reported_measurement": 0.0309}
{"sequence_input": "GTGAGATCTTGGGTTCTAACCTGTTGCCT (site GTGGAATCTAG)", "reported_measurement": 0.079}
{"sequence_input": "TGGCCCTCTTGGGTTCTAACCTGTTGCTC (site TGGCCCTCTAA)", "reported_measurement": 0.0244}
{"sequence_input": "GCCCTCCCTTGGGTTCTAACCTGTTGCCT (site GCACTCCCTAG)", "reported_measurement": 0.558}

----------
assay_explanation: recombinant barcode read abundance after kanamycin selection (control-corrected) (log10(CPM+1)); higher = more efficient recombination; sequences stand for … in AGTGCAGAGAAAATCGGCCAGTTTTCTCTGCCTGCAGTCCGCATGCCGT…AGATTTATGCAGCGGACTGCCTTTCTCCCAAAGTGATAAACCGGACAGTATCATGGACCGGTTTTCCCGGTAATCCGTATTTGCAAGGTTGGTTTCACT; site = the 11-nt target
experimental_readout: recombinant barcode read abundance (log10)

{"sequence_input": "GAGTGGCCTTGGGTTCTAACCTGTTGCAT (site GAGTGGCCTAA)", "reported_measurement": 0.242}
{"sequence_input": "TATTGGACTTGGGTTCTAACCTGTTGCAA (site TATTGGACTTT)", "reported_measurement": 0.303}
{"sequence_input": "GCTAGTTCTTGGGTTCTAACCTGTTGCTT (site ACTCGTTCTAA)", "reported_measurement": 0.0742}
{"sequence_input": "CACTTACCTTGGGTTCTAACCTGTTGCCT (site CACTTATCTAG)", "reported_measurement": 0.0355}
{"sequence_input": "CGACTGACTTGGGTTCTAACCTGTTGCCT (site CGACTGACTAG)", "reported_measurement": 0.229}
